Measured values drawn from ChEMBL document CHEMBL5058577 for this set.

# System: Fibroblast
# test-name: Multiplex assay against human fibroblast
# Type: toxicity, cell-based
# cond: 48 h, 10 µM, compound concentration 10 uM, replicate 1
observation-type: Population Fragmented Nuclei (%)
Please reply with the bare figure in % and do not write the unit itself.

# compound, assayed-target, readout-number
records = [
    ("CC(C)(C)c1cc(NC(=O)Nc2ccc(-c3cn4c(n3)sc3cc(OCCN5CCOCC5)ccc34)cc2)no1", "Fibroblast", 30),
    ("Cl.NCCc1ccc(O)c(O)c1 [DOPAMINE HYDROCHLORIDE]", "Fibroblast", 21),
    ("O=C(NCCN1CCC(n2c(=O)[nH]c3cc(Cl)ccc32)CC1)c1ccc(F)cc1 [HALOPEMIDE]", "Fibroblast", 32),
    ("CCc1cc2cc(NS(=O)(=O)c3ccc(C#N)cc3)ccc2n(CC)c1=O", "Fibroblast", 17),
]

QUERY: Query (compound): Cc1c(CC(=O)O)c2cccnc2n1Cc1ccc(S(C)(=O)=O)cc1C(F)(F)F ; field requested: Population Fragmented Nuclei (%)
RESULT: 22

QUERY: Query (compound): CN(C)C(=O)Cn1cc(-c2ccc(-c3cncc4ccccc34)cc2)cn1 ; field requested: Population Fragmented Nuclei (%)
RESULT: 24

QUERY: Query (compound): COc1ccccc1N1CCN(C[C@@H](C(=O)NC(C)(C)C)c2ccccc2)CC1.Cl.Cl ; field requested: Population Fragmented Nuclei (%)
RESULT: 18

QUERY: Query (compound): COc1cccc2c1c(NS(=O)(=O)c1ccc(Cl)s1)nn2Cc1cccc(CNC(=O)C(C)(C)O)c1 ; field requested: Population Fragmented Nuclei (%)
RESULT: 13

QUERY: Query (compound): CN[C@@H](C)C(=O)N[C@H](C(=O)N1CCC[C@H]1C(=O)Nc1snnc1-c1ccccc1)C1CCCCC1 ; field requested: Population Fragmented Nuclei (%)
RESULT: 23

QUERY: Query (compound): CC(C)c1noc(N2CCC(COc3ccc(-c4ccc(S(C)(=O)=O)cc4)nc3)CC2)n1 ; field requested: Population Fragmented Nuclei (%)
RESULT: 13

QUERY: Query (compound): CC[C@@H](C)Nc1nc(C)nc2c(-c3ccc(OC)nc3C)c(C)nn12 ; field requested: Population Fragmented Nuclei (%)
RESULT: 23

QUERY: Query (compound): Cc1cccc(NC(=O)CN2CCC(c3ccccn3)CC2)c1.Cl.Cl ; field requested: Population Fragmented Nuclei (%)
RESULT: 17

QUERY: Query (compound): NCCc1cn(S(=O)(=O)c2c(Cl)nc3sccn23)c2ccccc12.O=C(O)C(=O)O ; field requested: Population Fragmented Nuclei (%)
RESULT: 22

QUERY: Query (compound): O=C(CCCc1ccccc1)Nc1nc2ccccc2c(=O)s1 ; field requested: Population Fragmented Nuclei (%)
RESULT: 19

QUERY: Query (compound): Cc1noc(-c2ccc(-c3ccc(CC(=O)O)cc3)cc2)c1NC(=O)O[C@H](C)c1ccccc1Cl ; field requested: Population Fragmented Nuclei (%)
RESULT: 30

* * *

# Lookup of reported Population Hoechst High Intensity Objects (%) keyed by entry
# Test system: Fibroblast
# test-name: Multiplex assay against human fibroblast
# Type: toxicity, cell-based
# cond: 24 h, 10 µM, compound concentration 10 uM, replicate 1
Please reply with the bare figure in % and do not write the unit itself.

Some compounds with recorded Population Hoechst High Intensity Objects (%):
# compound, unit-of-measurement, readout-number
data = [
    ("N#Cc1cc(F)cc(-c2nc(-c3ccc(F)cn3)no2)c1", "%", 4),
    ("CC(C)c1noc(N2CCC(COc3ccc(-c4ccc(S(C)(=O)=O)cc4)nc3)CC2)n1", "%", 2),
    ("Br.CS(=O)(=O)Nc1c(O)ccc2c1CCCC2C1=NCCN1 (centres undefined)", "%", 3),
    ("CN1CCN(c2cc(-c3ccccc3)nc(N)n2)CC1", "%", 2),
]

QUERY: Query (compound): CC(C)COc1ccc(CNC(=O)N(Cc2ccc(F)cc2)C2CCN(C)CC2)cc1 ; field requested: Population Hoechst High Intensity Objects (%)
RESULT: 4

QUERY: Query (compound): CC(=O)Nc1cccc2c1c(Sc1ccc(Cl)cc1)c(C)n2CC(=O)O ; field requested: Population Hoechst High Intensity Objects (%)
RESULT: 4

QUERY: Query (compound): COC[C@@H](c1ccc(C(F)(F)F)cc1)N1CCN(C2(C)CCN(C(=O)c3c(C)ncnc3C)CC2)C[C@@H]1C.O=C(O)/C=C\C(=O)O [VICRIVIROC MALEATE] ; field requested: Population Hoechst High Intensity Objects (%)
RESULT: 12

QUERY: Query (compound): N#Cc1c(Oc2cccc(OS(=O)(=O)CCCC(F)(F)F)c2)cccc1C(F)(F)F ; field requested: Population Hoechst High Intensity Objects (%)
RESULT: 5

QUERY: Query (compound): Cc1cnc(-c2cc(N3CCN(C(=O)CCS(C)(=O)=O)CC3)ncc2Cl)c(C)c1 ; field requested: Population Hoechst High Intensity Objects (%)
RESULT: 0

QUERY: Query (compound): CCCCC(=O)N(Cc1ccc(-c2ccccc2-c2nnn[nH]2)cc1)[C@H](C(=O)O)C(C)C ; field requested: Population Hoechst High Intensity Objects (%)
RESULT: 2

QUERY: Query (compound): Cc1sc2c(c1C)C(c1ccc(Cl)cc1)=N[C@@H](CC(=O)NCCCCCCCCNC(=O)COc1cccc3c1C(=O)N(C1CCC(=O)NC1=O)C3=O)c1nnc(C)n1-2 (some centres undefined) ; field requested: Population Hoechst High Intensity Objects (%)
RESULT: 13

QUERY: Query (compound): COc1ccccc1N1CCN(C[C@@H](C(=O)NC(C)(C)C)c2ccccc2)CC1.Cl.Cl ; field requested: Population Hoechst High Intensity Objects (%)
RESULT: 8

QUERY: Query (compound): Cc1onc(-c2ccccc2Cl)c1C(=O)N(C)c1ccc(Cl)cc1 ; field requested: Population Hoechst High Intensity Objects (%)
RESULT: 2

QUERY: Query (compound): CC(C)(C)c1cc(NC(=O)Nc2ccc(-c3cn4c(n3)sc3cc(OCCN5CCOCC5)ccc34)cc2)no1 ; field requested: Population Hoechst High Intensity Objects (%)
RESULT: 1
